Where these numbers come from: patent US8389557B2

# pIC50 per entry
# ASSAY_SYSTEM: Axl (Homo sapiens, UniProt P30530)
# Construct: endogenous in cells; host or cells: HeLa cells
# Sequence (P30530 26-894): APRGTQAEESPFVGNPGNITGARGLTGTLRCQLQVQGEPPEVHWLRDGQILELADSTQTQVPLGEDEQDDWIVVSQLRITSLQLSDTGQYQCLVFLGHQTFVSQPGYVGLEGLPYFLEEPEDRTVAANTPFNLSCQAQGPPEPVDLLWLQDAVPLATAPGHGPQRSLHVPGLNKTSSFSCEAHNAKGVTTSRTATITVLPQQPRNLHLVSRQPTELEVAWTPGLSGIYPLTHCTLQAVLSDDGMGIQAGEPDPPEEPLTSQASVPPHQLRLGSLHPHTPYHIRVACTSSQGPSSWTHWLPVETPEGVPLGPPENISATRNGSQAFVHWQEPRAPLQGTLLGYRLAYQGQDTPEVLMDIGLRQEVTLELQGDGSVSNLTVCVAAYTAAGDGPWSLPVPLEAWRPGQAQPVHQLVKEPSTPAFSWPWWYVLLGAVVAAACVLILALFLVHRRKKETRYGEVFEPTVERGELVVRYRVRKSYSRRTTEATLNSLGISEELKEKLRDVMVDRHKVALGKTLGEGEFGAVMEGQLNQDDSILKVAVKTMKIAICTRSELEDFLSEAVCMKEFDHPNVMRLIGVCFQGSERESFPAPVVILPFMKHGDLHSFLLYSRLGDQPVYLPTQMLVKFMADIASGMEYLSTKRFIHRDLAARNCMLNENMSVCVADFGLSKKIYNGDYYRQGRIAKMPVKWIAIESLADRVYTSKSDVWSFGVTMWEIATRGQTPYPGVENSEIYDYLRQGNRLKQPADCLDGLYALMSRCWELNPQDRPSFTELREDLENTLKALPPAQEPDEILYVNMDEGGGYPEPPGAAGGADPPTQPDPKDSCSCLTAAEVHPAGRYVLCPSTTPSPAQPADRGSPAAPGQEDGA
# EXPERIMENT_SUMMARY: Phospho-Akt in-cell Western assay (inhibition of Axl activity)
# Format: cell-based
# PROTOCOL_CONDITIONS: inhibition of Axl activity, Table 1
pIC50: −log10 of the molar value.
OBSERVABLE: pIC50

- COMPOUND: "Cc1cccc(C(=O)n2nc(Nc3cccc(OCC(=O)NCC(O)CO)c3)nc2N)c1 (stereo not drawn) [compound 153]"
  OBSERVABLE: "pIC50"
  RESULT: "5.00 to 6.00"
- COMPOUND: "Nc1ccc(C(=O)n2nc(Nc3ccc4c(c3)OCCO4)nc2N)cc1 [compound 243]"
  OBSERVABLE: "pIC50"
  RESULT: "5.00 to 6.00"
- COMPOUND: "Nc1nc(Nc2ccc3c(c2)OCCO3)nn1C(=O)c1ccc(OCC(F)(F)F)cc1 [compound 230]"
  OBSERVABLE: "pIC50"
  RESULT: "< 4.70"
